target: m5 muscarinic receptor (Homo sapiens, UniProt P08912)
Construct: expressed in transfected cells; host or cells: NIH 3T3
Sequence (P08912 whole entry): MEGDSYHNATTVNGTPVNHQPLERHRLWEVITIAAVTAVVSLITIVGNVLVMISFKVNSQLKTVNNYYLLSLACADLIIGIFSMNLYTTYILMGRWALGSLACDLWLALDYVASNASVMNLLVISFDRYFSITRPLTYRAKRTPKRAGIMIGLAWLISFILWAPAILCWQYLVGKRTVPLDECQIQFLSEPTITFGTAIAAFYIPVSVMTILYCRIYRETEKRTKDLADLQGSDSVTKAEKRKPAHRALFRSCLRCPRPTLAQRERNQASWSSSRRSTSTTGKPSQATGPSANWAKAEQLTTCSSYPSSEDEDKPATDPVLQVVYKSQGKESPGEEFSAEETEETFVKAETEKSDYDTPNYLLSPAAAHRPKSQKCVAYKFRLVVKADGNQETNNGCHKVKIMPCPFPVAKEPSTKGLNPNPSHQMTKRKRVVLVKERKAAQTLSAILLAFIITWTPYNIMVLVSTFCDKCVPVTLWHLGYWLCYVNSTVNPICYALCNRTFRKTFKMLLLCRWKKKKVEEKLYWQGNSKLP
test_summary: Single Receptor Format amplification assay, β-galactosidase marker, NIH 3T3 cells transfected with m5
Type: cell-based
test_conditions: β-gal amplification; mean ±SE of 2-4 experiments; read-out: Muscarinic Agonists EC50 [μM], m5
measurement_name: EC50

// lookup EC50 for C[N+](C)(C)CC#CCOC(=O)Nc1cccc(Cl)c1.[Cl-]
1 µM

---

target: m3 muscarinic receptor (Homo sapiens, UniProt P20309)
Construct: expressed in transfected cells; host or cells: NIH 3T3
Sequence (P20309 whole entry): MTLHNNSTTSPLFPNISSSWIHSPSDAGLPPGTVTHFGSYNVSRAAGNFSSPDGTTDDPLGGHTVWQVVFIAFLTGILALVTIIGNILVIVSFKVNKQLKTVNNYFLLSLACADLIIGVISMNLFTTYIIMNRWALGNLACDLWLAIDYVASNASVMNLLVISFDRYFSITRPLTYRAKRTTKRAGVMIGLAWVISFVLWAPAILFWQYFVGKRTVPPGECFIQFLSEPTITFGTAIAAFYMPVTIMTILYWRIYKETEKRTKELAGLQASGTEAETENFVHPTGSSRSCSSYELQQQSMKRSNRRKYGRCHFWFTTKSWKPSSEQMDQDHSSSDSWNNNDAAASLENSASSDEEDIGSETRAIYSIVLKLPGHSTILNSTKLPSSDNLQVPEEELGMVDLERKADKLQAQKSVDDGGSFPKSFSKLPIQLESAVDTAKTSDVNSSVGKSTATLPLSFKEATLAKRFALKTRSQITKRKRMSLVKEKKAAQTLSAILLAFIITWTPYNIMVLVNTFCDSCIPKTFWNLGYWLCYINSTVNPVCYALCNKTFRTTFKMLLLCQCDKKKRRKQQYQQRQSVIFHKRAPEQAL
test_summary: Single Receptor Format amplification assay, β-galactosidase marker, NIH 3T3 cells transfected with m3
Format: cell-based
test_conditions: β-gal amplification; mean ±SE of 2-4 experiments; read-out: Muscarinic Agonists EC50 [μM], m3
measurement_name: EC50 (µM)
Numbers only, in µM.

1) C[N+](C)(C)CC#CCOC(=O)Nc1cccc(Cl)c1.[Cl-] ... 2.2

# evaluate next
// lookup EC50 for C[C@@H]1O[C@H](C[N+](C)(C)C)C[C@H]1O
0.56

Measured values drawn from patent US20090156501A1 for this set.
